Values compiled from paper PMC11110727.

system: S. aureus ATCC 43300 MRSA; test: Antibacterial activity: MIC/MBC determination and disc-diffusion; format: cell-based; details: Staphylococcus aureus; S. aureus ATCC 43300 MRSA; read-out: MBC (first MBC where Eagle effect)

Compound | Assay target | MBC / µg/mL
C[Si]1(C)OB(O)c2ccc(SCCC(=O)OCCCCCC[n+]3ccccc3)c(F)c21 | S. aureus ATCC 43300 MRSA | 100
C[Si]1(C)OB(O)c2ccc(SCCS(=O)(=O)c3ccccc3)c(F)c21 | S. aureus ATCC 43300 MRSA | 400
CC(=O)CCSc1c(F)cc2c(c1F)[Si](C)(C)OB2O | S. aureus ATCC 43300 MRSA | 200
C[Si]1(C)OB(O)c2ccc(S)c(F)c21 | S. aureus ATCC 43300 MRSA | 25
C[Si]1(C)OB(O)c2cc(F)c(SC3CC(=O)NC3=O)c(F)c21 (stereo not drawn) | S. aureus ATCC 43300 MRSA | 200
C[Si]1(C)OB(O)c2ccc(SCC(=O)c3ccccc3)c(F)c21 | S. aureus ATCC 43300 MRSA | 25
C[Si]1(C)OB(O)c2cc(F)c(SCCC(=O)Nc3cnccn3)c(F)c21 | S. aureus ATCC 43300 MRSA | 400
C[Si]1(C)OB(O)c2ccc(SC3CC(=O)N(c4ccc(Br)c(C(F)(F)F)c4)C3=O)c(F)c21 (stereo not drawn) | S. aureus ATCC 43300 MRSA | 100
C[Si]1(C)OB(O)c2cc(F)c(SCCS(=O)(=O)c3ccccc3)c(F)c21 | S. aureus ATCC 43300 MRSA | 200
